Source of measurements: the supplement of paper PMC7595190

# Test system: CMK
# PROTOCOL TEXT: CellTox Green cytotoxicity fluorescence relative to DMSO vehicle (fold of vehicle RFU); higher = more cell death (loss of membrane integrity), active = 2 or more
# STATED CONDITIONS: 1 µM; 72 h
Entries annotated with measured CellTox Green cytotoxicity fluorescence
TEST READOUT: CellTox Green cytotoxicity fluorescence

compound_structure_string=O=C1NC(=NCc2cccs2)S/C1=C\c1ccc2ncccc2c1 observed=1.08
compound_structure_string=C=CC(=O)N1CC(=Cc2ccc([N+](=O)[O-])cc2)C(=O)C(=Cc2ccc([N+](=O)[O-])cc2)C1 observed=2.48
compound_structure_string=NS(=O)(=O)C#Cc1ccccc1 observed=0.96
compound_structure_string=Fc1ccc(CNc2ncnc3ccc(F)cc23)cc1 observed=0.917
